- run-description: Pharmacokinetic study in uninfected C57BL/6 mice (LC-MS/MS of blood)
- Assay type: in vivo
- cond: both sexes, mouse, whole blood; intravenous 4 mg/kg, uninfected C57BL/6 mice, blood
AUC(0-inf) overview
reported-metric: AUC(0-inf)

smiles-representation	reported-metric	observed-value
CCc1c(OCc2ccccc2)c(=O)ccn1CCCCCCNc1ccnc2cc(Cl)ccc12	AUC(0-inf)	0.42 µM·h
O=c1cc(CNCCCCCCNc2ccnc3cc(Cl)ccc23)n(C2CC2)cc1OCc1ccccc1	AUC(0-inf)	3.27 µM·h
